# Test system: sarcoma 180
# TEST NAME: Therapeutic index (LD50/ED50) in mice (Table 5)
# Format: in vivo, male mice of ICR strain
# RUN PARAMETERS: oral, uracil (b)/(a) mol ratio 2.5
# Text: The LD50 and ED50 values obtained above are used to determine the therapeutic index (LD50 /ED50).
I'd appreciate it if you could supply Therapeutic index (LD50/ED50) values for the items below.

Fill in: Therapeutic index (LD50/ED50) of CCOC(=O)n1cc(F)c(=O)[nH]c1=O is ___
6.9

What do we get for O=c1[nH]cc(F)c(=O)n1C1CCCO1 (centres unmarked) [Compound 7, 3-(2-Tetrahydrofuryl)-5-fluorouracil] ?
23.7

What do we get for CCCCn1cc(F)c(=O)[nH]c1=O ?
8.2

What do we get for CCCCCCNC(=O)n1cc(F)c(=O)[nH]c1=O ?
40.8

What do we get for O=c1c(F)cn(C2CCCO2)c(=O)n1C1CCCO1 (centres unmarked) ?
30.1

###

# Tested on: sarcoma 180
# TEST NAME: Therapeutic effect on sarcoma 180 transplanted in mice (Table 5)
# Type: in vivo, male mice of ICR strain
# RUN PARAMETERS: oral, uracil (b)/(a) mol ratio 0, as amount of 5-fluorouracil (a), 14400 min
OUTCOME MEASURE: log10(ED50) (log10 of the value in mg/kg)
Hi team, quick reminder: these entries are log10 of ED50 (mg/kg).

Fill in: log10(ED50) of O=c1[nH]cc(F)c(=O)[nH]1 is ___
1.27

What do we get for CCCCn1cc(F)c(=O)[nH]c1=O ?
2.27

What do we get for Fc1cnc(OCc2ccccc2)nc1OCc1ccccc1 ?
2.56

What do we get for O=c1[nH]cc(F)c(=O)n1C1CCCO1 (stereo not drawn) [Compound 7, 3-(2-Tetrahydrofuryl)-5-fluorouracil] ?
1.89

What do we get for O=c1[nH]c(=O)n(C2CCCO2)cc1F (stereo not drawn) [Compound 2, 1-(2-Tetrahydrofuryl)-5-fluorouracil, reference compound] ?
2.15

What do we get for O=c1[nH]c(=O)n(S(=O)(=O)c2ccccc2)cc1F ?
2.37

###

# TEST NAME: in vivo
# Type: in vivo
# RUN PARAMETERS: mouse, in vivo, po, mice, uracil (b)/(a) mol ratio 10, as amount of 5-fluorouracil (a)
# Method: (5) The anti-cancer compositions of this invention are tested in mice by the following methods to determine acute toxicity, therapeutic effect and theapeutic index. Male mice of ICR strain weighing 22±1 g are used, 5 mice in each group. […] Over the following period of three weeks the mice are checked every day for poisoning, body weight and mortality. The LD50 is determined according to the up-and-down method 3 weeks after the administration.
OUTCOME MEASURE: LD50 at 504 h (mg/kg)
Value expressed in mg/kg; do not type the unit.

Fill in: LD50 at 504 h of CCCCn1cc(F)c(=O)[nH]c1=O is ___
358

What do we get for O=c1[nH]cc(F)c(=O)n1C1CCCO1 (centres unmarked) [Compound 7, 3-(2-Tetrahydrofuryl)-5-fluorouracil] ?
381

What do we get for O=c1c(F)cn(C2CCCO2)c(=O)n1C1CCCO1 (centres unmarked) ?
1160

What do we get for CCOC(=O)n1cc(F)c(=O)[nH]c1=O ?
179

What do we get for O=c1[nH]c(=O)n(S(=O)(=O)c2ccccc2)cc1F ?
427

What do we get for O=c1[nH]cc(F)c(=O)[nH]1 ?
97

What do we get for CCCCCCNC(=O)n1cc(F)c(=O)[nH]c1=O ?
644

What do we get for CCOCn1cc(F)c(=O)[nH]c1=O ?
191
